Target or system Histamine H3 receptor (Homo sapiens, UniProt Q9Y5N1); recorded quantity AC50. Note: assay procedure not described here.

Record excerpt, results attached:
CC(C(=O)O)c1ccc(CC2CCCC2=O)cc1 (stereo not drawn)    > 30 µM
CC(C)Cc1ccc(C(C)C(=O)O)cc1 (stereo not drawn)    > 10 µM
Clc1ccc(C(Cn2ccnc2)OCc2ccsc2Cl)c(Cl)c1 (stereo not drawn)    > 30 µM
C[C@]12CC[C@@H]3c4ccc(O)cc4C[C@@H](CCCCCCCCC[S+]([O-])CCCC(F)(F)C(F)(F)F)[C@H]3[C@@H]1CC[C@@H]2O (stereo partly drawn)    > 30 µM
CCOC(=O)O[C@]1(C(=O)OCCl)CC[C@H]2[C@@H]3CCC4=CC(=O)C=C[C@]4(C)[C@H]3[C@@H](O)C[C@@]21C [LOTEPREDNOL ETABONATE]    > 30 µM
CN(C)CC[C@@H](c1ccc(Cl)cc1)c1ccccn1    6.3 µM
Cc1onc(-c2ccccc2)c1-c1ccc(S(N)(=O)=O)cc1    > 30 µM
CC(CCc1ccc(O)cc1)NCCc1ccc(O)c(O)c1 (stereo not drawn)    > 30 µM

Working through the 4 molecules below one at a time, give AC50 for each.
1. CCCCC(=O)O[C@]1(C(=O)CO)[C@@H](C)C[C@H]2[C@@H]3CCC4=CC(=O)C=C[C@]4(C)[C@@]3(F)[C@@H](O)C[C@@]21C [BETAMETHASONE VALERATE]
2. CCC(=O)O[C@]1(C(=O)SCF)[C@H](C)C[C@H]2[C@@H]3C[C@H](F)C4=CC(=O)C=C[C@]4(C)[C@@]3(F)[C@@H](O)C[C@@]21C [FLUTICASONE PROPIONATE]
3. CC(=O)N[C@@H](CS)C(=O)O
4. C=CC[C@@H]1/C=C(\C)C[C@H](C)C[C@H](OC)[C@H]2O[C@@](O)(C(=O)C(=O)N3CCCC[C@H]3C(=O)O[C@H](/C(C)=C/[C@@H]3CC[C@@H](O)[C@H](OC)C3)[C@H](C)[C@@H](O)CC1=O)[C@H](C)C[C@@H]2OC [TACROLIMUS ANHYDROUS]

1. > 10 µM
2. > 30 µM
3. > 30 µM
4. > 30 µM

# get_value(readout= AC50, system= Histamine H3 receptor (Homo sapiens, UniProt Q9Y5N1)) for Oc1ccc2c(c1)[C@@]13CCCC[C@@]1(O)[C@@H](C2)N(CC1CCC1)CC3; note: assay procedure not described here
> 30 µM

----------
Target or system Type-1 angiotensin II receptor (Homo sapiens, UniProt P30556); recorded quantity AC50. Note: assay procedure not described here.

Record excerpt, results attached:
C#CCOc1ccc(N)cc1C(=O)NCCCC [PARSALMIDE]    > 30 µM
N[C@@H](CC(=O)N1CCn2c(nnc2C(F)(F)F)C1)Cc1cc(F)c(F)cc1F    > 30 µM

Working through the 7 compounds below one at a time, give AC50 for each.
1. CCC1(c2ccccc2)CCC(=O)NC1=O (stereo not drawn) [GLUTETHIMIDE]
2. CCN(CC)C(=O)Nc1ccc(OCC(O)CNC(C)(C)C)c(C(C)=O)c1 (stereo not drawn)
3. CCCCCCCCCCCCCCCCCCCCCC(=O)Nc1ccn([C@@H]2O[C@H](CO)[C@@H](O)[C@@H]2O)c(=O)n1
4. CC1(C)S[C@@H]2[C@H](NC(=O)[C@H](N)c3ccccc3)C(=O)N2[C@H]1C(=O)OCOC(=O)[C@@H]1N2C(=O)C[C@H]2S(=O)(=O)C1(C)C
5. Cc1cnc(C(=O)NCCc2ccc(S(=O)(=O)NC(=O)NC3CCCCC3)cc2)cn1 [GLIPIZIDE]
6. CC(=O)OCC(=O)[C@@]1(O)[C@H](C)C[C@H]2[C@@H]3CCC4=CC(=O)C=C[C@]4(C)[C@@]3(F)[C@@H](O)C[C@@]21C [DEXAMETHASONE ACETATE]
7. C/N=C(\NC)NCc1ccccc1

1. > 10 µM
2. > 30 µM
3. > 30 µM
4. > 30 µM
5. > 30 µM
6. > 30 µM
7. > 30 µM

----------
Biological target: Histamine H1 receptor (Homo sapiens, UniProt P35367); note: assay procedure not described here
Sequence (P35367 whole entry): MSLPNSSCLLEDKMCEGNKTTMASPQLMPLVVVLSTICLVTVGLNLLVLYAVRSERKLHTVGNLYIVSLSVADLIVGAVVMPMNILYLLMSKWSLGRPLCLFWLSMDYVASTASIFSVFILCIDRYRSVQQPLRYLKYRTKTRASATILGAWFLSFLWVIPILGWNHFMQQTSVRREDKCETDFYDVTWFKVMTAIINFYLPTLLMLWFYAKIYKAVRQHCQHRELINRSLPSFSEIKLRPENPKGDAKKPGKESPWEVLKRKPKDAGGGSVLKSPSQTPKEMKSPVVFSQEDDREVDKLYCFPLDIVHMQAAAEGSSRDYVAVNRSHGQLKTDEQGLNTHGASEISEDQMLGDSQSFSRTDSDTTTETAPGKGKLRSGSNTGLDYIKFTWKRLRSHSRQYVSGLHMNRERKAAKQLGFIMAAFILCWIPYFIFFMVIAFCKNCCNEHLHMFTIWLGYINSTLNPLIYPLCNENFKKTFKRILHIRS
Assay type: functional, cell-based
metric_name: AC50

Record excerpt, results attached:
CC12CC3CC(C)(C1)CC(N)(C3)C2 [MEMANTINE]    > 30 µM
C=C[C@H]1C[N@@]2CC[C@H]1C[C@@H]2[C@@H](O)c1ccnc2ccc(OC)cc12    > 30 µM
CC(C)c1nc(N(C)S(C)(=O)=O)nc(-c2ccc(F)cc2)c1/C=C/[C@@H](O)C[C@@H](O)CC(=O)O    > 30 µM
CN(C)CCc1c[nH]c2ccc(Cn3cncn3)cc12    20 µM

Now, please, on to the next compound.
# get_value(readout= AC50, system= Histamine H1 receptor (Homo sapiens, UniProt P35367)) for C[C@@H](NCCCc1cccc(C(F)(F)F)c1)c1cccc2ccccc12; note: assay procedure not described here
> 30 µM

----------
Target or system D(3) dopamine receptor (Homo sapiens, UniProt P35462); recorded quantity AC50. Note: assay procedure not described here.

Record excerpt, results attached:
CCC(C)C(CC)C(N)=O (configuration not stated) [VALNOCTAMIDE]    > 30 µM
C=C[C@@]1(C)CC(=O)[C@]2(O)[C@@]3(C)[C@@H](O)CCC(C)(C)[C@@H]3[C@H](O)[C@H](OC(C)=O)[C@@]2(C)O1 [COLFORSIN]    > 30 µM
C[C@H]1c2cccc(O)c2C(=O)C2=C(O)[C@]3(O)C(=O)C(C(N)=O)=C(O)[C@@H](N(C)C)[C@@H]3[C@@H](O)[C@@H]21 [DOXYCYCLINE]    > 10 µM
COc1ccccc1Oc1c(NS(=O)(=O)c2ccc(C(C)(C)C)cc2)nc(-c2ncccn2)nc1OCCO [BOSENTAN]    > 30 µM
CN(C)CC[C@@H](c1ccc(Cl)cc1)c1ccccn1 [DEXCHLORPHENIRAMINE]    > 30 µM
CCC[C@H](NC(=O)[C@@H]1[C@H]2CCC[C@H]2CN1C(=O)[C@@H](NC(=O)[C@@H](NC(=O)c1cnccn1)C1CCCCC1)C(C)(C)C)C(=O)C(=O)NC1CC1    > 30 µM
O=C1CN=C(c2ccccn2)c2cc(Br)ccc2N1 [BROMAZEPAM]    > 30 µM
O=C(O)CCNC(=O)c1ccccc1 [BETAMIPRON]    > 30 µM
C[C@@H](NCCCc1cccc(C(F)(F)F)c1)c1cccc2ccccc12    1.5 µM
CC12CC3CC(C)(C1)CC(N)(C3)C2 [MEMANTINE]    > 30 µM

Working through the 2 compounds below one at a time, give AC50 for each.
1. CC1OC2(CS1)CN1CCC2CC1 (configuration not stated) [CEVIMELINE]
2. CCOC(=O)C1=C[C@]2(CC)CCCN3CCc4c(n1c1ccccc41)[C@@H]32 [VINPOCETINE]

> 30 µM
23 µM

----------
Target or system Alpha-1A adrenergic receptor (Homo sapiens, UniProt P35348); recorded quantity AC50. Note: assay procedure not described here.

Record excerpt, results attached:
CCCCC1C(=O)N(c2ccccc2)N(c2ccccc2)C1=O    > 10 µM
Nc1cc(-c2ccncc2)c[nH]c1=O    > 10 µM
CCC[C@H](NC(=O)[C@@H]1[C@H]2CCC[C@H]2CN1C(=O)[C@@H](NC(=O)[C@@H](NC(=O)c1cnccn1)C1CCCCC1)C(C)(C)C)C(=O)C(=O)NC1CC1    > 10 µM
CN1C(C(=O)Nc2ccccn2)=C(O)c2ccccc2S1(=O)=O    > 30 µM

I have this molecule here, C=C1/C(=C\C=C2/CCC[C@]3(C)[C@@H]([C@H](C)/C=C/[C@@H](O)C4CC4)CC[C@@H]23)C[C@@H](O)C[C@@H]1O , and I need its recorded AC50.
29 µM

----------
Molecular target: UniProt:P21731
Sequence (P21731 whole entry): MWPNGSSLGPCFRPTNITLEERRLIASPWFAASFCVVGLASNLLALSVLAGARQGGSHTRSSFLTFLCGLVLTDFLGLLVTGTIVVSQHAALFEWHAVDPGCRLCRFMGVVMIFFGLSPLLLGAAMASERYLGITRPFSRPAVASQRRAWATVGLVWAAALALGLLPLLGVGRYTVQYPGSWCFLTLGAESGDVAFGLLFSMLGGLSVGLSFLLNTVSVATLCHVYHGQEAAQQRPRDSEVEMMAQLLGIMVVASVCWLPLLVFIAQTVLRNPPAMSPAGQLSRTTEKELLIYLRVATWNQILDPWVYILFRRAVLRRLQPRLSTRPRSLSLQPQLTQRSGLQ
Format: functional, cell-based
Please respond with reported AC50 for every item in the list.

Record excerpt, results attached:
CN1CCCCC1CCN1c2ccccc2Sc2ccc([S+](C)[O-])cc21 (stereo unspecified)    > 30 µM
CC1=CCC(C(C)(C)O)CC1O (stereo unspecified)    > 30 µM
FC(F)(F)c1ccc(CNc2ccc(Cc3c[nH]c4ncc(Cl)cc34)cn2)cn1    8.61 µM
CN(C)CCOC(c1ccccc1)c1ccc(Br)cc1 (stereo unspecified) [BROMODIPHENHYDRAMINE]    14.8 µM
OC[C@H]1O[C@@](CO)(O[C@H]2O[C@H](CO)[C@@H](O)[C@H](O)[C@H]2O)[C@@H](O)[C@@H]1O    > 30 µM
OC[C@@H](O)[C@@H](O)[C@H](O)[C@@H](O)CO    > 30 µM
OC[C@H]1O[C@@H](c2ccc(Cl)c(Cc3ccc(O[C@H]4CCOC4)cc3)c2)[C@H](O)[C@@H](O)[C@@H]1O    > 30 µM
CCOC(=O)c1c(C)cc2c(CO)n[nH]c(=O)c2c1C [OXAGRELATE]    > 30 µM

Working through the 3 compounds below one at a time, give AC50 for each.
1. C=C1CC[C@H](O)C/C1=C/C=C1\CCC[C@]2(C)[C@@H]([C@H](C)/C=C/[C@H](C)C(C)C)CC[C@@H]12
2. [H]/N=C(\N/C(=N/[H])Nc1ccc(Cl)cc1)NC(C)C
3. CC[C@@H]([C@H](C)O)n1ncn(-c2ccc(N3CCN(c4ccc(OC[C@@H]5CO[C@@](Cn6cncn6)(c6ccc(F)cc6F)C5)cc4)CC3)cc2)c1=O

["> 30 µM", "> 30 µM", "> 1 µM"]

Origin of values: ChEMBL document CHEMBL5291721
